Overview of recorded log10 IC50 for various molecules
- Tested on: SAS cells
- procedure_summary: SAS CTG proliferation assay (120 h) (HNSCC, wt amplified)
- Assay type: cell-based
experimental_endpoint: log10 IC50 (log10 of the value in nM)

> print(dat)
                                    molecule  system.under.test  recorded.value
 1  C[C@H](Oc1cc(-n2cc(-c3cncs3)nn2)nc(-c2noc3c2CCC[C@@]32CCCc3sc(N)c(C#N)c32)n1)[C@@H]1CCCN1C [II-125]          SAS cells            2.26
 2  C[C@H]1CN(C)CCCN1c1cc(N2CCN(C)CC2)nc(-c2onc3c2CCC[C@@]32CCCc3sc(N)c(C#N)c32)n1 [I-7]          SAS cells            2.67
 3  C[C@H](Oc1cc(-c2ccn(C[C@@H](C)O)n2)nc(-c2onc3c2CCC[C@@]32CCCc3sc(N)c(C#N)c32)n1)[C@@H]1CCCN1C [I-30]          SAS cells            1.70
 4  C[C@H](Oc1cc(-n2ccc(C(N)=O)n2)nc(-c2noc3c2CCC[C@@]32CCCc3sc(N)c(C#N)c32)n1)[C@@H]1CCCN1C [II-21]          SAS cells            1.54
 5  Cc1cn(C)nc1-c1cc(O[C@@H](C)[C@@H]2CCCN2C)nc(-c2noc3c2CCC[C@@]32CCCc3sc(N)c(C#N)c32)n1 [II-68]          SAS cells            2.79
 6  C[C@H](Oc1cc(-c2ccn(C3COC3)n2)nc(-c2noc3c2CCC[C@@]32CCCc3sc(N)c(C#N)c32)n1)[C@@H]1C[C@H](F)CN1C [II-83]          SAS cells            1.26
 7  C[C@H](Oc1cc(-n2cc3ccn(C[C@H]4CCOC4)c(=O)c3n2)nc(-c2noc3c2CCC[C@@]32CCCc3sc(N)c(C#N)c32)n1)[C@@H]1CCCN1C [II-204]          SAS cells            1.23
 8  C[C@H](Oc1cc(-n2ccnc2)nc(-c2noc3c2CCC[C@@]32CCCc3sc(N)c(C#N)c32)n1)[C@@H]1C[C@@H](F)CN1C [II-120]          SAS cells            2.69
 9  CO[C@H]1CCN(C)[C@@H]1[C@H](C)Oc1cc(N2CCNC3(CC3)C2)nc(-c2onc3c2CCC[C@@]32CCCc3sc(N)c(C#N)c32)n1 [I-49]          SAS cells            2.96
10  C[C@H](Oc1cc(N2CC[C@H](N3CCCCC3)C2)nc(-c2noc3c2CCC[C@@]32CCCc3sc(N)c(C#N)c32)n1)[C@@H]1CCCN1C [II-12]          SAS cells            3.28
11  C[C@H](Oc1cc(-c2ccn(C[C@@H](C)O)n2)nc(-c2noc3c2CCC[C@@]32CCCc3sc(N)c(C#N)c32)n1)[C@@H]1CCCN1C [II-117]          SAS cells            1.34
12  C[C@H](Oc1cc(N2C[C@H](C)N(C)[C@@H](C)C2)nc(-c2onc3c2CCC[C@@]32CCCc3sc(N)c(C#N)c32)n1)[C@@H]1CCCN1C [I-43]          SAS cells            3.26
13  C[C@H](Oc1cc(-c2cn[nH]c2)nc(-c2noc3c2CCC[C@@]32CCCc3sc(N)c(C#N)c32)n1)[C@@H]1CCCN1C [II-87]          SAS cells            2.03
